# koff per entry
- ASSAY_SYSTEM: T1, AAV9
- T1 construct: also called adeno-associated virus serotype 9
- EXPERIMENT: SPR, AAV on CM5 chip;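 also: surface plasmon resonance with AAV amine-coupled to the chip as ligand, nanobodies injected as analyte over a concentration series, rate constants and affinity fitted from binding curves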
Report the figure in s⁻¹ without appending any unit label.

# example entries with known answers
{"BINDER": "A4-001 (VHH) VHH: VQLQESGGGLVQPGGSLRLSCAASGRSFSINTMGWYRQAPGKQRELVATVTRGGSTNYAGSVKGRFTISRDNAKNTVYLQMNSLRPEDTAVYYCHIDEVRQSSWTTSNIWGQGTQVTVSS", "VALUE_UNITS": "s⁻¹", "koff": 0.0116}
{"BINDER": "A4-020 (VHH) VHH: VQLQESGGGLVQAGGSLRLSCAASGSTFSINTMGWYRQAPGKQRELVATITRGGNTNYADSVKGRFTISRDNAKNTVYLQMNSLRPEDTAVYYCHVDEVRQSSWTTSNLWGQGTQVTVSS", "VALUE_UNITS": "s⁻¹", "koff": 0.00169}
{"BINDER": "A4-032 (VHH) VHH: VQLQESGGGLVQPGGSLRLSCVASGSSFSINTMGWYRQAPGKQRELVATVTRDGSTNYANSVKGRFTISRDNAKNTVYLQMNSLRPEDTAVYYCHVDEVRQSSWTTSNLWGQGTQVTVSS", "VALUE_UNITS": "s⁻¹", "koff": 0.00108}
{"BINDER": "A4-048 (VHH) VHH: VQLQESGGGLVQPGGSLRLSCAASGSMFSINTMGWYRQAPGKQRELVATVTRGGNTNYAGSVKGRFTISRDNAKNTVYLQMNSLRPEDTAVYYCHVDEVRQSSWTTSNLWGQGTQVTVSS", "VALUE_UNITS": "s⁻¹", "koff": 0.0013}

Please report the recorded koff for A4-049 (VHH) VHH: VQLQESGGGLVQPGGSLRLSCAASGSMFSINTMGWYRQAPGKQRELVAAVTRGGNTNYAGSVKGRFTISRDNAKNTVYLQMNSLRPEDTAVYYCHVDEVRQSSWTTSNLWGQGTQVTVSS .
0.00194

// lookup koff for A4-023 (VHH) VHH: VQLQESGGGLVQPGGSLRLSCAASGSAFSINTMGWYRQAPGKQRELVASVTPGGSTNYADSVKGRFTISRDNAKNTIYLQMNSLRPEDTAVYYCHLDEVRESSWTTSNLWGQGTQVTVSS
0.00056

Fill in: koff of A4-014 (VHH) VHH: VQLQESGGGLVQPGGSLRLSCAASGSRFSINSMGWYRQAPGKQRELVATVTRGGNTNYAGSVKGRFTISRDNAKNTVYLQMNSLRPEDTAVYYCHVDEVRESSWTTSNLWGQGTQVTVSS is ___
0.00085

Which koff value belongs to A4-039 (VHH) VHH: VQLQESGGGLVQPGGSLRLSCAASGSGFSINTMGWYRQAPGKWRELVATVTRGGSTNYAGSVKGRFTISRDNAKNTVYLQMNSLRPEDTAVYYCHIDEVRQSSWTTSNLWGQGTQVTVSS ?
0.001

This collection of values is drawn from patent US20260193326A1.
